Some molecules, each annotated with its measured inhibition at 10 µM.
molecular target: UniProtKB Q14524; assay: Peak INa screening assay (tonic block and use-dependent block); type: cell-based; conditions: use-dependent block; test compound at 10 μM; read-out: UDB Peak INa % blk
Sequence (Q14524 whole entry): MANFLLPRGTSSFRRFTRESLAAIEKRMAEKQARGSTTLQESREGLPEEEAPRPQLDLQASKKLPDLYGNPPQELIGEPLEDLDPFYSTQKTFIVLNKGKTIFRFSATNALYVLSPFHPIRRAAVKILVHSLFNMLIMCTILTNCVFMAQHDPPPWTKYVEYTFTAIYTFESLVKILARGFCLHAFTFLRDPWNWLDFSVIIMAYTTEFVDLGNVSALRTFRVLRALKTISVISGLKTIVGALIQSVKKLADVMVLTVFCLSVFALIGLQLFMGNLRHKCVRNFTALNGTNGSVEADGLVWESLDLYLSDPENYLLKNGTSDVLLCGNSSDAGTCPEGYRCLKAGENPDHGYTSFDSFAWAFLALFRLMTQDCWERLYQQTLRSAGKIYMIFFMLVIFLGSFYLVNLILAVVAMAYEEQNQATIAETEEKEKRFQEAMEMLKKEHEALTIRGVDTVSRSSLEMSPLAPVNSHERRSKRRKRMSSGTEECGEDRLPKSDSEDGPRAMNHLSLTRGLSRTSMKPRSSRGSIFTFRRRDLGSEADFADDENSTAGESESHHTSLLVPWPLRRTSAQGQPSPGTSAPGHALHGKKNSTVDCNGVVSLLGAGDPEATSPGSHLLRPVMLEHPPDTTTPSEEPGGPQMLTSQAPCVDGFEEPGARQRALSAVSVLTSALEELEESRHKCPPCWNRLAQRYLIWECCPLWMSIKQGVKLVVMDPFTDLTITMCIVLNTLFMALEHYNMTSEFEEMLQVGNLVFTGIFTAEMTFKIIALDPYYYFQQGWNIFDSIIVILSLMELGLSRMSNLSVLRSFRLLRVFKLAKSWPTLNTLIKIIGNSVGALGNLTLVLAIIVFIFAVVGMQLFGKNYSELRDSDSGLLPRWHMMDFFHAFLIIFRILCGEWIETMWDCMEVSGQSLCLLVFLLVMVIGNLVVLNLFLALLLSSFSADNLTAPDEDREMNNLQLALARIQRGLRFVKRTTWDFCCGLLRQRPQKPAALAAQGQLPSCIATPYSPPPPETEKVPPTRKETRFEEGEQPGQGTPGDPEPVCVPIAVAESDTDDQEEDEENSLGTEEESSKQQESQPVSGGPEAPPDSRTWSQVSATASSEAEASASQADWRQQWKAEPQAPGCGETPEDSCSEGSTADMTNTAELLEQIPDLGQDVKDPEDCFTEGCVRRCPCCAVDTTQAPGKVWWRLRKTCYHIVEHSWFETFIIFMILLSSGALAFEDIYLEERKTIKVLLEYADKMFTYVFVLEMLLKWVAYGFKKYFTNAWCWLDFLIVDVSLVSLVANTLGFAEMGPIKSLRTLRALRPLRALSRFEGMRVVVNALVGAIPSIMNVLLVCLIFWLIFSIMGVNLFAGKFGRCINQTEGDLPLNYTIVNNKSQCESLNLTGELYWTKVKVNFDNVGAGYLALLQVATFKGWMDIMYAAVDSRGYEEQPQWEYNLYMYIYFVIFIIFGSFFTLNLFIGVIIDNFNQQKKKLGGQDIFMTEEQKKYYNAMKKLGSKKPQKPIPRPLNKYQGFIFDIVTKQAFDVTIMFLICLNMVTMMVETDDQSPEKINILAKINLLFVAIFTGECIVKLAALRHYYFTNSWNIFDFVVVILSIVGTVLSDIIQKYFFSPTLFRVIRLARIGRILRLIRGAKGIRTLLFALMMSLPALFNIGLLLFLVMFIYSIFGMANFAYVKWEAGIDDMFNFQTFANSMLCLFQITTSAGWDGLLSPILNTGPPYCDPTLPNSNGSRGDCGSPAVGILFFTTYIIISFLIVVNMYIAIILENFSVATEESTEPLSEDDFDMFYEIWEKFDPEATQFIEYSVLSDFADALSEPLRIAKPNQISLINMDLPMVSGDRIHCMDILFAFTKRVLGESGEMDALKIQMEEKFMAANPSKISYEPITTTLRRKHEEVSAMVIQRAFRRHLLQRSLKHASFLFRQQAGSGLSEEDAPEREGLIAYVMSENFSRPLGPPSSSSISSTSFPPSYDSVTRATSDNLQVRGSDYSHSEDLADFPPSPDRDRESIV
quantity name: inhibition at 10 µM (%)

molecule="CC1=C(C(=O)OCc2ccccc2)C(c2sccc2Br)n2nnnc2N1 (stereo not shown)" value_measured=4.8
molecule="COc1ccc(C2C(C(=O)OCc3ccccc3)=C(C)Nc3nnnn32)c(C#N)c1 (stereo not shown)" value_measured=2.9
molecule="CCOC(=O)C1=C(C)Nc2c(c(C)nn2C)C1c1cccc2ccccc12 (stereo not shown)" value_measured=4.3
molecule="CC1=C(C(=O)OCc2ccccc2)C(c2cccc3ccccc23)n2nnnc2N1Cc1nnn[nH]1 (stereo not shown)" value_measured=11.6
molecule="CCOC(=O)C1=C(C)Nc2nnnn2C1c1ccccc1I (stereo not shown)" value_measured=4.8
molecule="CC1=C(C(=O)OCc2ccccc2)C(c2ccccc2-c2ccc(NS(C)(=O)=O)cc2)c2cn[nH]c2N1 (stereo not shown)" value_measured=4.6
molecule=CC1=C(C(=O)OCc2ccccc2)[C@@H](c2ccccc2-c2ccc(C)o2)n2nnnc2N1 value_measured=4.5
